test name: chemical genetic growth profiling, strain panel (AID 1159580);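 further: tested at 20 µM; growth read once vehicle control cultures reached saturation at 30 °C; 1 = growth at the plate median or of vehicle wells; lower values mean less growth of the strain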
condition info: S. cerevisiae deletion strains, growth OD, locus YNL298W, strain CLA4, hits give low values
Out of some 5,500 compounds screened, about 2,000 (36%) were called active. Not shown: some 18% with an inconclusive outcome. This is one part of the list.
Reported normalized growth values follow for various compounds
Give the figure only, with no unit attached.

{"compound": "CC1(O)/C=C/C=C(\\CO)C2CC(C)(C)C2(O)CC1 (stereo not given)", "normalized growth": 0.993}
{"compound": "CNC1(C)C2CCC(C2)C1(C)C (stereo not given)", "normalized growth": 0.99}
{"compound": "C/C=C(/C(=C/C)c1ccc(O)cc1)c1ccc(O)cc1", "normalized growth": 0.629}

// normalized growth lookup, compound = "CCOC(=O)/C=C(\C)OP(=O)(OC)OC" , result: 1.01

Query "Cc1c(N(C)C)c(=O)n(-c2ccccc2)n1C" yields normalized growth of 1

# normalized growth (compound: "C=CC(C)(C)c1c2c(c(O)c3c(=O)c4ccc(O)c(O)c4oc13)C=CC(C)(C)O2" ) is 1

Record O=C(O)C1CC([C@@H]2CCCCN2)CN2CCCCC12 (stereo not given in full) . Reported normalized growth: 0.972

Input "CC(=C(CCOP(=O)(O)O)SC(=O)c1ccccc1)N(C=O)Cc1cnc(C)nc1N" . Output normalized growth: 1.01

Per the records, this compound ( "Oc1c(Cl)c(Cl)c(Cl)c(Cl)c1Cl" ) has normalized growth equal to 0.679

response.value for "NC/C=C/C(=O)O" (field: normalized growth) = 1.01

For this compound ( "Cc1cc(=O)c2c(O)cc(O)c(C)c2o1" ), measured normalized growth is 0.983

The compound identified as O=C1CC(c2ccc(O)cc2)Oc2ccccc21 (stereo not given) registered its normalized growth at 0.903

Field normalized growth (entry "Cn1cc[nH]c1=S" ) reads 0.946

Form: compound = "COc1ccc(-c2c(O)c3cc4c(c(CC=C(C)C)c3oc2=O)OC(C)(C)CC4)cc1" ; normalized growth = 1.01

The value of normalized growth measured for the compound "O=c1ccc2ccccc2o1" turned out to be 0.993
